Numbers sourced from ChEMBL document CHEMBL1914398.

- MEASUREMENT_DESCRIPTION: Selectivity ratio of Ki for SERT to Ki for DAT
Decision: Ratio Ki beneath 40 gives Satisfied; Ratio Ki meeting or exceeding 40 gives Not satisfied.

Problem: Lab note: confirm whether the reported Ratio Ki for this compound is below 40, equality not counting. compound: CN1C2CCC1[C@@H](CNc1cccc(Br)n1)[C@@H](c1ccc(Cl)cc1)C2 (stereo partly drawn)
Result: Satisfied

* * *

- SYSTEM: Sodium-dependent noradrenaline transporter (Homo sapiens, UniProt P23975)
- Sequence (P23975 whole entry): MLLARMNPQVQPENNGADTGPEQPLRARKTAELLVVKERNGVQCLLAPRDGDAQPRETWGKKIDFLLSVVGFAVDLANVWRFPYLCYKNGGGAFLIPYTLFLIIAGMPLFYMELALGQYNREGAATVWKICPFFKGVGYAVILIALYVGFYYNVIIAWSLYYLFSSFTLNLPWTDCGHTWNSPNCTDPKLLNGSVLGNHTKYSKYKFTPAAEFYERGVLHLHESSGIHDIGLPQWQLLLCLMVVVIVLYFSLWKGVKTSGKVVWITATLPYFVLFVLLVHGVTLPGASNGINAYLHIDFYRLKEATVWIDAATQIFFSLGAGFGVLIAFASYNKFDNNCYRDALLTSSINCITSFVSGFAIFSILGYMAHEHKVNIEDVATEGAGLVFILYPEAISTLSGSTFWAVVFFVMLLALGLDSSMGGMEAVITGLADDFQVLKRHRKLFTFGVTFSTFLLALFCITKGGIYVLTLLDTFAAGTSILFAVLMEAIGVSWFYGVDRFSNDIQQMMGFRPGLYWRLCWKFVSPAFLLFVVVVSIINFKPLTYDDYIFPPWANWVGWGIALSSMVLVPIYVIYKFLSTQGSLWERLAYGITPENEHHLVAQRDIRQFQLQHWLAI
- MEASUREMENT_DESCRIPTION: Displacement of [125I]-INXT from NET transfected in pig LLC-PK1 cells by radioligand competition binding assay
# reported Ki; entries follow
Your answer should be a plain number; it is taken to be in µM.

CN1C2CCC1[C@@H](CNc1ccnc(Br)c1)[C@@H](c1ccc(Cl)cc1)C2 (some centres undefined): 0.0277
CN1C2CCC1[C@@H](C(=O)Nc1ccnc(Br)c1)[C@@H](c1ccc(Cl)cc1)C2 (some centres undefined): 12.1
CN1C2CCC1[C@@H](CNc1cccc(F)n1)[C@@H](c1ccc(Cl)cc1)C2 (some centres undefined): 0.0662

Problem: Please provide the recorded Ki for "COC(=O)[C@H]1[C@@H](c2ccc(F)cc2)C[C@H]2CC[C@H]1N2C" , tested on Sodium-dependent noradrenaline transporter (Homo sapiens, UniProt P23975).
Result: 0.635

Problem: // fetch Sodium-dependent noradrenaline transporter (Homo sapiens, UniProt P23975) Ki for CN1C2CCC1[C@@H](C(=O)Nc1cccc(F)n1)[C@@H](c1ccc(Cl)cc1)C2 (some centres undefined)
Result: 16.9

Problem: What value of Ki on Sodium-dependent noradrenaline transporter (Homo sapiens, UniProt P23975) does CN1C2CCC1[C@@H](CNc1ccc(Br)nc1)[C@@H](c1ccc(Cl)cc1)C2 (some centres undefined) have?
Result: 0.0491

Problem: Find the measured Ki: item CN1C2CCC1[C@@H](C(=O)Nc1ccc(Br)nc1)[C@@H](c1ccc(Cl)cc1)C2 (some centres undefined) , target or system Sodium-dependent noradrenaline transporter (Homo sapiens, UniProt P23975).
Result: 16.2

Problem: Field: Ki (Sodium-dependent noradrenaline transporter (Homo sapiens, UniProt P23975)). Entry: CN1C2CCC1[C@@H](CNc1cccc(Br)n1)[C@@H](c1ccc(Cl)cc1)C2 (some centres undefined)
Result: 0.0291

Problem: Lookup: Ki / Sodium-dependent noradrenaline transporter (Homo sapiens, UniProt P23975) / CN1C2CCC1[C@@H](C(=O)Nc1cccc(Br)n1)[C@@H](c1ccc(Cl)cc1)C2 (some centres undefined)
Result: 3.85

* * *

- MEASUREMENT_DESCRIPTION: Selectivity ratio of Ki for NET to Ki for DAT
Quick list: Ratio Ki per entry.

Answered cases to consult:
CN1C2CCC1[C@@H](CNc1cccc(Br)n1)[C@@H](c1ccc(Cl)cc1)C2 (stereo partly drawn): 5.2
CN1C2CCC1[C@@H](C(=O)Nc1ccnc(Br)c1)[C@@H](c1ccc(Cl)cc1)C2 (stereo partly drawn): 147
CN1C2CCC1[C@@H](C(=O)Nc1cccc(Br)n1)[C@@H](c1ccc(Cl)cc1)C2 (stereo partly drawn): 44
CN1C2CCC1[C@@H](CNc1cccc(F)n1)[C@@H](c1ccc(Cl)cc1)C2 (stereo partly drawn): 16
CN1C2CCC1[C@@H](C(=O)Nc1ccc(Br)nc1)[C@@H](c1ccc(Cl)cc1)C2 (stereo partly drawn): 153
CN1C2CCC1[C@@H](CNc1ccc(Br)nc1)[C@@H](c1ccc(Cl)cc1)C2 (stereo partly drawn): 2.7
CN1C2CCC1[C@@H](C(=O)Nc1cccc(F)n1)[C@@H](c1ccc(Cl)cc1)C2 (stereo partly drawn): 133

Here is another molecule to look at.
Problem: Item CN1C2CCC1[C@@H](CNc1ccnc(Br)c1)[C@@H](c1ccc(Cl)cc1)C2 (stereo partly drawn) has what recorded Ratio Ki?
Result: 3.5

* * *

- SYSTEM: Sodium-dependent dopamine transporter (Homo sapiens)
- Sequence (Q01959 whole entry): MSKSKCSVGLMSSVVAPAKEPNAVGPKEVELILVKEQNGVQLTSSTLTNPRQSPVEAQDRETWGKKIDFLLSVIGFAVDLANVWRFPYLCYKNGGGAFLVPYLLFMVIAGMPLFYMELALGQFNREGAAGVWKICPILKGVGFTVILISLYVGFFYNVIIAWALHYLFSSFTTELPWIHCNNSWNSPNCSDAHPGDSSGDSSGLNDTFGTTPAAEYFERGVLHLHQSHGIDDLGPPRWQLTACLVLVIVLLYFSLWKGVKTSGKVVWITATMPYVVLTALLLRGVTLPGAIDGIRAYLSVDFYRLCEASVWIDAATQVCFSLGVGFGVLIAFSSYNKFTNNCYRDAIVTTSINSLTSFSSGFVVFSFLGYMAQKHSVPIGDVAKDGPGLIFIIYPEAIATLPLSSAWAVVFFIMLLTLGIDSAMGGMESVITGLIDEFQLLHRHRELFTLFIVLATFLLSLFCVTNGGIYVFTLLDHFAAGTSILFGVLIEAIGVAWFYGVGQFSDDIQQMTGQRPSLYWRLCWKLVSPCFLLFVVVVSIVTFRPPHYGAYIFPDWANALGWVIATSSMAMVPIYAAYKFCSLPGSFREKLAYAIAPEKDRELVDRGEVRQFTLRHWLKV
- MEASUREMENT_DESCRIPTION: Displacement of [125I]-IPT from DAT transfected in pig LLC-PK1 cells by radioligand competition binding assay
pKi: −log10 of the molar value.
# label = Met if pKi >= 8 else Not met

Problem: Could you please find out whether COC(=O)[C@@H]1C2CCC(C[C@@H]1c1ccc(Cl)cc1)N2C (stereo not given in full) has pKi that meets 8 or exceeds it?
Result: Met

Problem: // inclusive: pKi at least 8? input: CN1C2CCC1[C@@H](CNc1ccc(Br)nc1)[C@@H](c1ccc(Cl)cc1)C2 (stereo not given in full)
Result: Not met

Problem: Reported pKi at or above 8? CN1C2CCC1[C@@H](C(=O)Nc1cccc(F)n1)[C@@H](c1ccc(Cl)cc1)C2 (stereo not given in full)
Result: Not met

Problem: Given the entry CN1C2CCC1[C@@H](C(=O)Nc1ccnc(Br)c1)[C@@H](c1ccc(Cl)cc1)C2 (stereo not given in full) , answer whether its pKi meets or surpasses 8.
Result: Not met

Problem: Determine whether measured pKi meets or exceeds 8 for CN1C2CCC1[C@@H](C(=O)Nc1cccc(Br)n1)[C@@H](c1ccc(Cl)cc1)C2 (stereo not given in full)
Result: Not met

Problem: Record CN1C2CCC1[C@@H](CNc1cccc(Br)n1)[C@@H](c1ccc(Cl)cc1)C2 (stereo not given in full) ; criterion: pKi no lower than 8. Met?
Result: Met

Problem: Can CN1C2CCC1[C@@H](C(=O)Nc1ccc(Br)nc1)[C@@H](c1ccc(Cl)cc1)C2 (stereo not given in full) be said to have pKi at or above 8?
Result: Not met

Problem: pKi >= 8 for COC(=O)[C@@H]1C2CCC(C[C@@H]1c1ccc(Br)cc1)N2C (stereo not given in full) ?
Result: Met

Problem: Hello, I need to know if CN1C2CCC1[C@@H](CNc1cccc(F)n1)[C@@H](c1ccc(Cl)cc1)C2 (stereo not given in full) has measured pKi not below 8. Thanks!
Result: Met

* * *

Each entry below lists one item and its recorded Ratio Ki value.
- MEASUREMENT_DESCRIPTION: Selectivity ratio of Ki for SERT to Ki for DAT
The response must contain the number and no unit.

Recorded Ratio Ki, per entry:
CN1C2CCC1[C@@H](C(=O)Nc1ccc(Br)nc1)[C@@H](c1ccc(Cl)cc1)C2 (some centres not stated): 144
CN1C2CCC1[C@@H](CNc1cccc(F)n1)[C@@H](c1ccc(Cl)cc1)C2 (some centres not stated): 5
CN1C2CCC1[C@@H](C(=O)Nc1cccc(F)n1)[C@@H](c1ccc(Cl)cc1)C2 (some centres not stated): 229

Problem: Name the reported Ratio Ki value associated with the molecule CN1C2CCC1[C@@H](CNc1ccc(Br)nc1)[C@@H](c1ccc(Cl)cc1)C2 (some centres not stated)
Result: 0.6

Problem: What does the record list as Ratio Ki for CN1C2CCC1[C@@H](C(=O)Nc1cccc(Br)n1)[C@@H](c1ccc(Cl)cc1)C2 (some centres not stated) ?
Result: 37

Problem: Find the recorded Ratio Ki belonging to CN1C2CCC1[C@@H](CNc1ccnc(Br)c1)[C@@H](c1ccc(Cl)cc1)C2 (some centres not stated) and report it.
Result: 1.4

Problem: # Ratio Ki lookup, item CN1C2CCC1[C@@H](C(=O)Nc1ccnc(Br)c1)[C@@H](c1ccc(Cl)cc1)C2 (some centres not stated)
Result: 125
